The compounds listed here are annotated with their melting point.

Solved cases below.
INSERT INTO assay_data (item_smiles, result) VALUES
  ('CCN(C(=S)n1cc(F)c(N)nc1=O)c1ccccc1', '223 to 226 °C'),
  ('CCCNC(=O)n1cc(F)c(N)nc1=O', '290 to 293 °C'),
  ('CCN(CC)C(=S)n1cc(F)c(/N=C/N(C)C)nc1=O', '118 to 123 °C'),
  ('O=C(Nc1ccc(F)cc1F)n1cc(F)c(NCc2ccccc2F)nc1=O', '150 to 153 °C'),
  ('Nc1nc(=O)n(C(=O)Nc2cccc(Cl)c2)cc1F', '250 to 252 °C');

Query: Fill in reported melting point for this entry: `COc1ccccc1CNC(=O)Nc1nc(=O)n(C(=O)NCc2ccccc2F)cc1F`
Reply: 229 to 231 °C

Query: Please give measured melting point of the following entry: `CCCNC(=O)n1cc(F)c(NC(=O)c2ccccc2)nc1=O`
Reply: 258 to 260 °C

###

Tested on: Mycosphaerella graminicola; Anamorph: Septoria tritici; Bayer Code SEPTTR
Test: Evaluation of fungicidal activity: leaf blotch of wheat (SEPTTR), wheat plants variety Yuma
Type: in vivo
Conditions: Zymoseptoria tritici, 24 h; One-Day Protectant (1DP), 100 ppm, wheat plants, percent control vs untreated inoculated plants; read-out: SEPTTR 100 PPM 1DP (% Disease Control rating)
Measure: pest or weed control at 100 ppm

Reference set (8 entries):
INSERT INTO results (compound, measure, result) VALUES
  ('COc1ccccc1CNC(=O)Nc1nc(=O)n(C(=O)NCc2ccccc2F)cc1F [Compound 53]', 'pest or weed control at 100 ppm', '0 to 25%'),
  ('CCOC(=O)CNC(=O)n1cc(F)c(N)nc1=O [Compound 25]', 'pest or weed control at 100 ppm', '76 to 100%'),
  ('O=C(Nc1cccc(Cl)c1)n1cc(F)c(NCc2ccccc2F)nc1=O [Compound 31]', 'pest or weed control at 100 ppm', '0 to 25%'),
  ('CCNC(=O)n1cc(F)c(NC(C)=O)nc1=O [Compound 38]', 'pest or weed control at 100 ppm', '76 to 100%'),
  ('CN(C)/C=N/c1nc(=O)n(C(=O)NCc2ccccc2)cc1F [Compound 3]', 'pest or weed control at 100 ppm', '76 to 100%'),
  ('Nc1nc(=O)n(C(=O)Nc2ccc(F)cc2)cc1F [Compound 21]', 'pest or weed control at 100 ppm', '76 to 100%'),
  ('Cc1ccc(NC(=O)n2cc(F)c(NCc3ccccc3F)nc2=O)cc1 [Compound 30]', 'pest or weed control at 100 ppm', '0 to 25%'),
  ('CCCNC(=O)n1cc(F)c(NCc2ccccc2F)nc1=O [Compound 32]', 'pest or weed control at 100 ppm', '26 to 50%');

Query: Fill in pest or weed control at 100 ppm for record Nc1nc(=O)n(C(=O)NCc2ccccc2F)cc1F [Compound 22]
Reply: 76 to 100%

Query: Specify pest or weed control at 100 ppm for Nc1nc(=O)n(C(=O)Nc2ccc(F)c(Cl)c2)cc1F [Compound 11] and stop.
Reply: 76 to 100%

Query: Hello, please tell me recorded pest or weed control at 100 ppm for this one: COc1ccccc1CNC(=O)Nc1nc(=O)n(C(=O)NC(C)C)cc1F [Compound 50]
Reply: 0 to 25%

Query: Determine from records and report pest or weed control at 100 ppm for CCNC(=O)n1cc(F)c(NC(=O)c2ccccc2)nc1=O [Compound 44]
Reply: 76 to 100%

Query: Provide pest or weed control at 100 ppm value for the following compound: CCCNC(=O)n1cc(F)c(NC(C)=O)nc1=O [Compound 39]
Reply: 76 to 100%

Query: Give reported pest or weed control at 100 ppm value for Nc1nc(=O)n(C(=O)Nc2ccc(Cl)cc2)cc1F [Compound 12]
Reply: 76 to 100%

Query: Please look at this compound and report its pest or weed control at 100 ppm: CCCNC(=O)n1cc(F)c(NC(=O)c2ccccc2Cl)nc1=O [Compound 42]
Reply: 26 to 50%

Query: Supply recorded pest or weed control at 100 ppm for CCOC(=O)CCNC(=O)n1cc(F)c(/N=C/N(C)C)nc1=O [Compound 2] here.
Reply: 76 to 100%

Query: Identify the reported pest or weed control at 100 ppm for the following entry. CCNC(=O)n1cc(F)c(NC(=O)NCc2ccccc2OC)nc1=O [Compound 49]
Reply: 0 to 25%

Query: Assign pest or weed control at 100 ppm to the following record: CC(=O)Nc1nc(=O)n(C(=O)NCc2ccc(Cl)cc2)cc1F [Compound 47]
Reply: 76 to 100%
